inhibition at 10 µM values by entry
Target: human bradykinin 1 receptor (B1R) (Homo sapiens, UniProt P46663)
Construct: expressed in transfected cells; host or cells: CHO K1 cells
Sequence (P46663 whole entry): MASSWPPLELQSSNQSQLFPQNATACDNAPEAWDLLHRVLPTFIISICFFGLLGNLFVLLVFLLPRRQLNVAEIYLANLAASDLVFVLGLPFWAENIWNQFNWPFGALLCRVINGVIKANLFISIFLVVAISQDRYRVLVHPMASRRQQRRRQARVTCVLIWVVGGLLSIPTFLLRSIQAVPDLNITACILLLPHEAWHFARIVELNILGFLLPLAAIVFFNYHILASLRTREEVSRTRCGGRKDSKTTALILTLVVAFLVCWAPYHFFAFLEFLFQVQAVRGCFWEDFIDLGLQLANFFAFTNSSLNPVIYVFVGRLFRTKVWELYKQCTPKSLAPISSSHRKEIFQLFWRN
Assay: Functional investigation on the human bradykinin 1 receptor (B1R), Ca2+ FLIPR assay in CHO K1 hB1R cells
Format: cell-based
Conditions: CHO-K1, B1R antagonism human; test substance 10 μM; Ca2+ FLIPR, CHO K1 hB1R cells; read-out: B1R Ant. h [10 μM] % Inhibition
Text: Functional Investigation on the Human Bradykinin 1 Receptor (B1R) The agonistic or antagonistic action of substances can be determined on the bradykinin 1 receptor (B1R) of the human species and rats with the following assay. In accordance with this assay, the Ca^2+ inflow through the channel is quantified with the aid of a Ca^2=-sensitive dyestuff (type Fluo-4, Molecular Probes Europe BV, Leiden, Holland) in a fluorescent imaging plate reader (FLIPR, Molecular Devices, Sunnyvale, USA). […]
Respond with the bare value in %.

Below are worked cases with known answers.
input: Give recorded inhibition at 10 µM. O=C(COC1CCN(S(=O)(=O)c2c(Cl)cc(Cl)cc2Cl)C1)NCC1CCC(C(c2ccccc2)N2CCCC2)CC1 (centres unmarked)
output: 73

input: Give recorded inhibition at 10 µM. CN(C)C(c1ccccc1)C1CCC(NC(=O)CNC(=O)c2nc(-c3cc(Cl)cc(Cl)c3)no2)CC1 (centres unmarked)
output: 66

input: Give recorded inhibition at 10 µM. O=C(COCC1CCCCN1S(=O)(=O)c1c(Cl)cc(Cl)cc1Cl)NC1CCC(C(c2ccccc2)N2CCCC2)CC1 (centres unmarked)
output: 101

Others:
input: Give recorded inhibition at 10 µM. COc1cc(C)c(S(=O)(=O)N2CCCC(COCC(=O)NCC3CCC(C(CCc4ccccc4)N4CCCC4)CC3)C2)c(C)c1 (centres unmarked)
output: 103

input: Give recorded inhibition at 10 µM. O=C(COC1CCCN(S(=O)(=O)c2c(Cl)cc(Cl)cc2Cl)C1)NC1CCC(C(c2ccccc2)N2CCOCC2)CC1 (centres unmarked)
output: 10

input: Give recorded inhibition at 10 µM. COc1cc(C)c(S(=O)(=O)N2CCCC(OCC(=O)NCC3CCC(C(CCc4ccccc4)N4CCCC4)CC3)C2)c(C)c1 (centres unmarked)
output: 101

input: Give recorded inhibition at 10 µM. O=C(COCC1CCCN1S(=O)(=O)c1c(Cl)cc(Cl)cc1Cl)NC1CCC(C(CCc2ccccc2)N2CCOCC2)CC1 (centres unmarked)
output: 43

input: Give recorded inhibition at 10 µM. Cc1ccc(S(=O)(=O)N2CCC(OCC(=O)NCC3CCC(C(c4cccs4)N(C)C)CC3)C2)cc1 (centres unmarked)
output: 18

input: Give recorded inhibition at 10 µM. CN(C)C(CCc1ccccc1)C1CCC(NC(=O)CNC(=O)c2nc(-c3cc(Cl)cc(Cl)c3)no2)CC1 (centres unmarked)
output: 35

input: Give recorded inhibition at 10 µM. O=C(COCC1CCCCN1S(=O)(=O)c1c(Cl)cc(Cl)cc1Cl)NCC1CCC(C(CCc2ccccc2)N2CCCC2)CC1 (centres unmarked)
output: 103

input: Give recorded inhibition at 10 µM. CN(C)C(c1ccccc1)C1CCC(NC(=O)CNC(=O)c2nc(-c3ccc(C(F)(F)F)cc3)no2)CC1 (centres unmarked)
output: 15

input: Give recorded inhibition at 10 µM. COc1ccc(S(=O)(=O)N2CCCCC2COCC(=O)NCCC2CCC(C(c3cccs3)N(C)C)CC2)cc1 (centres unmarked)
output: 81

input: Give recorded inhibition at 10 µM. COc1cc(C)c(S(=O)(=O)N2CCC(OCC(=O)NCC3CCC(C(c4ccccc4)N(C)C)CC3)C2)c(C)c1C (centres unmarked)
output: 46

input: Give recorded inhibition at 10 µM. CN(C)C(c1cccc(F)c1)C1CCC(CNC(=O)COCCN(C)S(=O)(=O)c2ccc(Cl)cc2Cl)CC1 (centres unmarked)
output: 98
